- targetOrTestSystem: T1, human-CD40 monomer (human, UniProt P25942 21-193, limits assumed)
- T1 construct: also called hCD40-monomer; human-CD40-monomer protein
- T1 sequence (P25942 21-193 limits assumed): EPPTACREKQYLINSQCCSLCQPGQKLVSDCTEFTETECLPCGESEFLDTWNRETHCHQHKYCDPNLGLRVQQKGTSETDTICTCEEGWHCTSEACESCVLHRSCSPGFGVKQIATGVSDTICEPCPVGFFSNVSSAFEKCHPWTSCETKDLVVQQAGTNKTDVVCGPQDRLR
- test: SPR 2 pt screen, Ab on protein A
quantityKind: kon (M⁻¹ s⁻¹)

INSERT INTO measurements (binder, unittag, valuereported) VALUES
  ('humanized Y1238 hz16 (hz-HC4 / hz-LC1), IgG1.3f (antibody, V domains shown, IgG1.3f heavy constant, common CL; expression supernatant; also called Sup 16) VH: QVQLVQSGAEVKKPGASVKVSCKASGYAFTNYLIEWVRQAPGQGLEWMGVINPGSGGTNYNEKFKGRVTMTADKSISTAYMELSRLRSDDTAVYYCARSQLGRRFDYWGQGTLVTVSS VL: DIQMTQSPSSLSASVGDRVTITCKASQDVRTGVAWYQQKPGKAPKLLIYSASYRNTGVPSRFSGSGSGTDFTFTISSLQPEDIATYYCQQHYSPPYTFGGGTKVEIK', 'M⁻¹ s⁻¹', 45000),
  ('chimeric Y1238 supernatant (Sup 56; HC-Chim / LC-Chim) (antibody, Tested as expression supernatant) VH: QVQLQQSGAELVRPGTSVKVSCKASGYAFTNYLIEWVKQRPGQGLEWIGVINPGSGGTNYNEKFKGKATLTADKSSSTAYMQLSSLTSDDSAVYFCARSQLGRRFDYWGQGTTLTVSS light: DIVMTQSHKFMSTSVGDRVSITCKASQDVRTGVAWYQQKPGQSPKLLIYSASYRNTGVPDRFTGSRSGTDFTFTISSVQAEDLAVYYCQQHYSPPYTFGGGTKLEIKRTVAAPSVFIFPPSDEQLKSGTASVVCLLNNFYPREAKVQWKVDNALQSGNSQESVTEQDSKDSTYSLSSTLTLSKADYEKHKVYACEVTHQGLSSPVTKSFNRGEC', 'M⁻¹ s⁻¹', 57000);
